B1: ANKRD40 (parent)
chain: VCCCELGVNPDQVEKIRKLPNTLL

variants of: B1; assay: protein stability index of a GFP-peptide fusion (GPS, HEK-293T) (PSI 1-6); higher = more stable; details: c terminus: a fixed tail appended;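 note: lentivirally expressed fusions sorted by FACS into six bins by GFP to DsRed ratio, PSI derived from sequencing read proportions per bin multiplied by bin number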
quantity measured: protein stability index
Form: value (number only, do not type unit).

Solved cases (6 shown):
For P10V , what is its reported protein stability index?
2.01

For L23W , what is its reported protein stability index?
2.9

For G7C , what is its reported protein stability index?
2.6

For N21M , what is its reported protein stability index?
1.84

For I16W , what is its reported protein stability index?
2.13

For C3R , what is its reported protein stability index?
2.1

---
For E5N , what is its reported protein stability index?
1.97

Attribution: the supplement of paper PMC10567573
